# TARGET OF ASSAY: thrombin (Homo sapiens (Human), UniProt P00734)
# EXPERIMENT: Determination of enzyme selectivity, thrombin
# Type: biochemical
# STATED CONDITIONS: substrate at Km concentration
MEASURE: IC50

Using the record for Cc1cc(C(=O)NCc2ccc3c(N)nccc3c2)c(C)n1Cc1csc(-c2ccccc2)n1 , state its measured IC50. > 40000 nM

---

# TARGET OF ASSAY: Human plasma kallikrein (Homo sapiens (Human))
# EXPERIMENT: Determination of the IC50 for plasma kallikrein (fluorogenic substrate H-DPro-Phe-Arg-AFC)
# STATED CONDITIONS: 37° C., read-out: IC50 (human PKaI)
MEASURE: IC50 (nM)
Give a bare numeral; the unit nM is implied.

The cases that follow already have their IC50 on record.
[[record]]
smiles_record = "Nc1nccc2cc(CNC(=O)c3cn(Cc4cnc(N5CCCC5)nc4)nc3C(F)(F)F)ccc12"
measure = "IC50"
recorded_measurement = 10.4

[[record]]
smiles_record = "O=C(NCc1cnc2[nH]ccc2c1)c1cn(Cc2ccc(Cn3ccccc3=O)cc2)nc1C(F)(F)F"
measure = "IC50"
recorded_measurement = 5.38

[[record]]
smiles_record = "Cc1cnn(Cc2ccc(Cn3cc(C(=O)NCc4ccc5c(N)nccc5c4)c(C#N)n3)cc2)c1"
measure = "IC50"
recorded_measurement = 0.74


Pending compound:
Using the record for CCn1c(C(=O)NCc2ccc3c(N)nccc3c2)cc(C)c1Cc1ccc(Cn2cc(C)cn2)cc1 , state its measured IC50. 63.7

---

# TARGET OF ASSAY: plasmin (Homo sapiens (Human), UniProt P00747)
# Sequence (P00747 581-810): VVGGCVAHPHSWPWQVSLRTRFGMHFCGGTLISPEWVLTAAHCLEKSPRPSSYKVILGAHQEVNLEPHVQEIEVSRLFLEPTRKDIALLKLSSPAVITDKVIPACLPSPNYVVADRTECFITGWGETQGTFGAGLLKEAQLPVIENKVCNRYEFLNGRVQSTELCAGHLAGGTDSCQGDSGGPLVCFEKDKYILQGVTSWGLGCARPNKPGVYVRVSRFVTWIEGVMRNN
# Sequence (P00747 97-580 partner): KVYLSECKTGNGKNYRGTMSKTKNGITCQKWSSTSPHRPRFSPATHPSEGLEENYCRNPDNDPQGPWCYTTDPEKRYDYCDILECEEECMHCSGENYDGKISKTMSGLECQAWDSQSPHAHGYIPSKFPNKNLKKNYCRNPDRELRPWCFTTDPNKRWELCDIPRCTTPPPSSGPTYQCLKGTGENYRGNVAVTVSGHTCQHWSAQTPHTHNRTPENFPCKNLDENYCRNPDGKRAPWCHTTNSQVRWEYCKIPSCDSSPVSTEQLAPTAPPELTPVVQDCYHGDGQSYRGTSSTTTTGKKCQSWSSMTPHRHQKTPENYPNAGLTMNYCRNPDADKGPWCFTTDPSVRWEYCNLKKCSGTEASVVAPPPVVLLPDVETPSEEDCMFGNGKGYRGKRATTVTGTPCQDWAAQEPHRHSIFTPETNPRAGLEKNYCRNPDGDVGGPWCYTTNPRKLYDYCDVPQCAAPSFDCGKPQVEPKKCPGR
# EXPERIMENT: Determination of enzyme selectivity, plasmin
# Assay type: biochemical
# STATED CONDITIONS: substrate at Km concentration
MEASURE: IC50

Answer with IC50 of Cc1cc(C(=O)NCc2ccc3c(N)nccc3c2)c(C)n1Cc1csc(-c2ccccc2)n1 measured for plasmin (Homo sapiens (Human), UniProt P00747). > 40000 nM

---

# TARGET OF ASSAY: Human KLK1 (Homo sapiens (Human))
# Sequence (P06870 25-262): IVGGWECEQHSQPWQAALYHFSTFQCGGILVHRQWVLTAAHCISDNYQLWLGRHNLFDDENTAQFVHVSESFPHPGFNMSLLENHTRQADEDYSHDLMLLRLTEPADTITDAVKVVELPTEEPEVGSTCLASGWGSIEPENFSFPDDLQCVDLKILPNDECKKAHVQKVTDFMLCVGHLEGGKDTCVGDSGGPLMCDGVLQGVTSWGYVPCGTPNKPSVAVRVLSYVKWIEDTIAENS
MEASURE: pIC50
Friendly reminder that pIC50 comes from taking -log10 of the concentration in mol/L.

The cases that follow already have their pIC50 on record.
[[record]]
compound = "Nc1nccc2cc(CNC(=O)c3cn(Cc4ccc(N5CC[C@H](F)C5)nc4)nc3C(F)(F)F)ccc12 [Example 60]"
recorded_measurement = 5.02

[[record]]
compound = "Cc1cnn(Cc2ccc(Cn3cc(C(=O)NCc4cccc5[nH]ncc45)c(C(F)(F)F)n3)cc2)c1 [Example 124]"
recorded_measurement = 5.14

[[record]]
compound = "C[C@H]1CCN(c2ccc(Cn3cc(C(=O)NCc4ccc5c(N)nccc5c4)c(C(F)(F)F)n3)cn2)C1 [Example 59]"
recorded_measurement = 5.40

[[record]]
compound = "Nc1nccc2cc(CNC(=O)c3cnn(Cc4cccc(Oc5ncccc5F)c4)c3)ccc12 [Example 48]"
recorded_measurement = 5.36


Answer with pIC50 of CCOc1cc(Cn2cc(C(=O)NCc3ccc4c(N)nccc4c3)c(C(F)(F)F)n2)ccn1 [Example 80] measured for Human KLK1 (Homo sapiens (Human)). 5.03

Answer with pIC50 of CCn1c(C(=O)NCc2ccc3c(N)nccc3c2)cc(C)c1Cc1ccc(Cn2ccccc2=O)cc1 [Example 6] measured for Human KLK1 (Homo sapiens (Human)). 5.02

Answer with pIC50 of Nc1nccc2cc(CNC(=O)c3cnn(Cc4ccnc(N5CCCC5)c4)c3C(F)(F)F)ccc12 [Example 51] measured for Human KLK1 (Homo sapiens (Human)). 4.93

Answer with pIC50 of Nc1nccc2cc(CNC(=O)c3cn(Cc4ccc(N5CCC(CO)C5)nc4)nc3C(F)(F)F)ccc12 (stereo not shown) [Example 69] measured for Human KLK1 (Homo sapiens (Human)). 5.32

Answer with pIC50 of CCOc1ccc(Cn2cc(C(=O)NCc3ccc4c(N)nccc4c3)c(N)n2)cn1 [Example 98] measured for Human KLK1 (Homo sapiens (Human)). 5.50

Answer with pIC50 of CCn1c(C(=O)NCc2ccc3c(N)nccc3c2)cc(C)c1Cc1ccc(N2CCCC2)nc1 [Example 30] measured for Human KLK1 (Homo sapiens (Human)). 5.24

Answer with pIC50 of Nc1nccc2cc(CNC(=O)c3cn(Cc4ccnc(N5CCCC5)c4)nc3C(F)(F)F)ccc12 [Example 54] measured for Human KLK1 (Homo sapiens (Human)). 4.74

---

# EXPERIMENT: Pharmacokinetics following a single oral dose in male Sprague-Dawley rats
# Format: in vivo
# STATED CONDITIONS: rat, single po dose 4 mg/kg, plasma
MEASURE: Tmax (h)
Give a bare numeral; the unit h is implied.

Using the record for Nc1nccc2cc(CNC(=O)c3cn(Cc4ccc(N5CCCC5)nc4)nc3C(F)(F)F)ccc12 , state its measured Tmax. 7

---

As shown below, each of these compounds has a reported pIC50 value.
# TARGET OF ASSAY: Human plasma kallikrein (Homo sapiens (Human), UniProt P03952)
# Sequence (P03952 391-638): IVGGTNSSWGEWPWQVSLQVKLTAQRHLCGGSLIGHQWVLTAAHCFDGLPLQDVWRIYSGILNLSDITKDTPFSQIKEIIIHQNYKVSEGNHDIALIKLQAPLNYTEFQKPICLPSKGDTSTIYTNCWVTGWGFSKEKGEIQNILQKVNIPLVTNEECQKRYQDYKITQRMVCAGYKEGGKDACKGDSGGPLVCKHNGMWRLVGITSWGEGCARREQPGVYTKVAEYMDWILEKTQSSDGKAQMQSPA
# Sequence (P03952 20-390 partner): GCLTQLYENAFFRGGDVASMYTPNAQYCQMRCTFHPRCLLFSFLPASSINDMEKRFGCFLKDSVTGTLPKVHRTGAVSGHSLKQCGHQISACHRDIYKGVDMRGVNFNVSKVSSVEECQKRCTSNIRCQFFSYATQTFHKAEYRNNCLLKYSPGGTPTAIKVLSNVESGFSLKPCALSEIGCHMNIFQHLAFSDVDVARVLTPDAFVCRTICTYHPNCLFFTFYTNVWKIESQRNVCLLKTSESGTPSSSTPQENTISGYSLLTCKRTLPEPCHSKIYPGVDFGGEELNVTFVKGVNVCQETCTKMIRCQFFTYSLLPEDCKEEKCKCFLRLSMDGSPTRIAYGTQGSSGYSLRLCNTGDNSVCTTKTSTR
# EXPERIMENT: Determination of the IC50 for plasma kallikrein (fluorogenic substrate H-DPro-Phe-Arg-AFC)
# STATED CONDITIONS: 37° C., read-out: IC50 (human PKaI)
Friendly reminder that pIC50 comes from taking -log10 of the concentration in mol/L.

[[record]]
smiles_record = "O=C(NCc1cnc2[nH]ccc2c1)c1cn(Cc2ccc(N3CCCC3)nc2)nc1C(F)(F)F"
target_of_assay = "Human plasma kallikrein (Homo sapiens (Human), UniProt P03952)"
measure = "pIC50"
recorded_measurement = 6.52

[[record]]
smiles_record = "C[C@@H]1CCN(c2ccc(Cn3cc(C(=O)NCc4ccc5c(N)nccc5c4)c(C(F)(F)F)n3)cn2)C1"
target_of_assay = "Human plasma kallikrein (Homo sapiens (Human), UniProt P03952)"
measure = "pIC50"
recorded_measurement = 7.88

[[record]]
smiles_record = "Cc1cnn(Cc2ccc(Cn3cc(C(=O)NCc4ccc5c(N)nccc5c4)c(C(=O)O)n3)cc2)c1"
target_of_assay = "Human plasma kallikrein (Homo sapiens (Human), UniProt P03952)"
measure = "pIC50"
recorded_measurement = 5.92


Using the record for Cc1cnn(Cc2ccc(Cn3cc(C(=O)NCc4ccc5[nH]ccc5c4)c(C(F)(F)F)n3)cc2)c1 , state its measured pIC50. 7.22

Using the record for Nc1nccc2cc(CNC(=O)c3cn(Cc4ccc(N5CCC(F)(F)C5)nc4)nc3C3CC3)ccc12 , state its measured pIC50. 7.63

Using the record for Cc1cnn(Cc2ccc(Cn3nc(C)c(C(=O)NCc4ccc5c(N)nccc5c4)c3C)cc2)c1 , state its measured pIC50. 6.85

Using the record for Cc1cnn(Cc2ccc(Cn3cc(C(=O)NCc4ccc5c(N)nccc5c4)c(C4CC4)n3)cc2)c1 , state its measured pIC50. 8.59

Using the record for CCOc1cc(Cn2cc(C(=O)NCc3ccc4c(N)nccc4c3)c(C(F)(F)F)n2)ccn1 , state its measured pIC50. 6.69

---

# TARGET OF ASSAY: Human KLK1 (Homo sapiens (Human))
As shown below, each of these compounds has a reported IC50 value.

[[record]]
smiles_record = "O=C(NCc1cnc2[nH]ccc2c1)c1cnn(Cc2ccc(Oc3ccccn3)cc2)c1"
recorded_measurement = "38.1 µM"


Answer with IC50 of Cc1cnn(Cc2ccc(Cn3cc(C(=O)NCc4cc5cc[nH]c5nc4C)cn3)cc2)c1 measured for Human KLK1 (Homo sapiens (Human)). > 10 µM

---

As shown below, each of these molecules has a reported IC50 value.
# TARGET OF ASSAY: Human plasma kallikrein (Homo sapiens (Human))
# EXPERIMENT: Determination of the IC50 for plasma kallikrein (fluorogenic substrate H-DPro-Phe-Arg-AFC)
# STATED CONDITIONS: 37° C., read-out: IC50 (human PKaI)
Give a bare numeral; the unit nM is implied.

The cases that follow already have their IC50 on record.
[[record]]
molecule = "Nc1nccc2cc(CNC(=O)c3cn(Cc4ccc(Cn5cccn5)cc4)nc3C(F)(F)F)ccc12 [Example 76]"
recorded_measurement = 0.92

[[record]]
molecule = "CCOc1ncc(Cn2cc(C(=O)NCc3ccc4c(N)nccc4c3)c(C(F)(F)F)n2)cc1F [Example 75]"
recorded_measurement = 98.3

[[record]]
molecule = "Cc1cnn(Cc2ccc(Cn3cc(C(=O)NCc4ccc5c(N)nccc5c4)c(=O)[nH]3)cc2)c1 [Example 19]"
recorded_measurement = 994

[[record]]
molecule = "CCn1c(C(=O)NCc2ccc3c(N)nccc3c2)cc(C)c1Cc1ccc(Cn2ccccc2=O)cc1 [Example 6]"
recorded_measurement = 9460

[[record]]
molecule = "O=C(NCc1cnc2[nH]ccc2c1)c1cnn(Cc2cccc(Oc3ncccc3F)c2)c1 [Example 106]"
recorded_measurement = 12000

[[record]]
molecule = "Nc1nccc2cc(CNC(=O)c3cn(Cc4ccc(Cn5cccn5)nc4)nc3C(F)(F)F)ccc12 [Example 79]"
recorded_measurement = 2.29

[[record]]
molecule = "O=C(NCc1cnc2[nH]ccc2c1)c1cnn(Cc2ccc(COc3cccc(F)n3)cc2)c1 [Example 109]"
recorded_measurement = 4200

[[record]]
molecule = "Nc1nccc2cc(CNC(=O)c3cnn(Cc4ccc(Cn5cccn5)cc4)c3N)ccc12 [Example 53]"
recorded_measurement = 16.8


Using the record for O=C(NCc1cnc2[nH]ccc2c1)c1cnn(Cc2ccc(Oc3ccccn3)cc2)c1 [Example 107] , state its measured IC50. 2300

Using the record for Nc1nccc2cc(CNC(=O)c3cn(Cc4ccc(Cn5ccnn5)cc4)nc3C3CC3)ccc12 [Example 91] , state its measured IC50. 13.8

Using the record for C[C@H]1CCN(c2ccc(Cn3cc(C(=O)NCc4ccc5c(N)nccc5c4)c(C(F)(F)F)n3)cn2)C1 [Example 59] , state its measured IC50. 5.84

Using the record for Cc1cnn(Cc2ccc(Cn3cc(C(=O)NCc4cnc5[nH]ccc5c4)cn3)cc2)c1 [Example 117] , state its measured IC50. 78

Using the record for Cc1cnn(Cc2ccc(Cn3cc(C(=O)NCc4ccc5c(N)nccc5c4)c(-c4c(C)noc4C)n3)cc2)c1 [Example 20] , state its measured IC50. 0.89

Using the record for CCOc1ccc(Cn2cc(C(=O)NCc3ccc4c(N)nccc4c3)c(NC(=O)COC)n2)cn1 [Example 27] , state its measured IC50. 128

Using the record for COc1cc(Cn2cc(C(=O)NCc3ccc4c(N)nccc4c3)c(C3CC3)n2)cc(N2CCCC2)n1 [Example 88] , state its measured IC50. 112

Using the record for O=C(NCc1cccc2[nH]ncc12)c1cn(Cc2ccc(Cn3ccccc3=O)cc2)nc1C(F)(F)F [Example 126] , state its measured IC50. 22.9
